Target: SARS-COV-2 RBD (SARS-COV-2, UniProt P0DTC2 319-539)
Assay: ELISA, RBD coated
Overview of recorded EC50 for various binders

Consider the following illustrative entries.
- C538 (antibody, V domains shown) VH: QLQLQESGPGLVKPSETLSLTCTVSGGSISSSSYYWAWIRQPPGKGLEWIGNIYYSGITYYSPSLKSRVTISVDTSKNQFSLKLRSVTAADTAVYYCARQHRYGSGSSELLWGQGTLVTVSS VL: QSALTQPPSASGSPGQSVTISCTGTSSDVGSYNYVSWYQQHPGKAPKLMIYEVTKRPSGVPDRFSGSKSGNTASLTVSGLQADDEADYYCSSYAGSSNLIFGGGTKLTVL: 3.94 ng/mL
- C054 (antibody, V domains shown) VH: EVQLVESGGGLIQPGGSLRLSCAASGFTVSNNYMSWVRQAPGKGLEWVSVIYSGGSTYDADSVKGRFTISRDNSKNTLYLQMNSLSAEDTAVYYCAREGDVEGYYDFWSGYSRDRYYFDYWGQGTLVTVSS VL: QSALTQPASVSGSPGQSITISCTGTSSDVGGYNYVSWYQQHPGKAPKLMIYDVSNRPSGVSNRFSGSKSGNTASLTISGLQAEDEADYYCSSYTSSSARVFGTGTKVTVL: 1.58 ng/mL

Continue with the next binder.
I'd like to know its EC50. The binder in question is C521 (antibody, V domains shown) VH: EVQLVESGGGLVRPGGSLTLSCVASGFTVGSNFMSWVRQAPGKGLEWVSLIYNSGGTHYADSVKGRFTISRDRSKNTLYLQMNSLRAEDTAIYYCANHGYYYYMDVWGKGTTVTVS VL: QSALTQPASVSGSPGQSITISCTGTGSDIGAYNYVSWHQHHPGKAPKLIIYDVSNRPSGVSNRFSGSKSGNTASLTISGLQAEDEADYYCTSYTNTTTPWVFGGGTKVTVL 6.9 ng/mL
